Target: Phosphatidylinositol 4,5-bisphosphate 3-kinase catalytic subunit gamma isoform (Homo sapiens, UniProt P48736)
Sequence (P48736 whole entry, canonical isoform): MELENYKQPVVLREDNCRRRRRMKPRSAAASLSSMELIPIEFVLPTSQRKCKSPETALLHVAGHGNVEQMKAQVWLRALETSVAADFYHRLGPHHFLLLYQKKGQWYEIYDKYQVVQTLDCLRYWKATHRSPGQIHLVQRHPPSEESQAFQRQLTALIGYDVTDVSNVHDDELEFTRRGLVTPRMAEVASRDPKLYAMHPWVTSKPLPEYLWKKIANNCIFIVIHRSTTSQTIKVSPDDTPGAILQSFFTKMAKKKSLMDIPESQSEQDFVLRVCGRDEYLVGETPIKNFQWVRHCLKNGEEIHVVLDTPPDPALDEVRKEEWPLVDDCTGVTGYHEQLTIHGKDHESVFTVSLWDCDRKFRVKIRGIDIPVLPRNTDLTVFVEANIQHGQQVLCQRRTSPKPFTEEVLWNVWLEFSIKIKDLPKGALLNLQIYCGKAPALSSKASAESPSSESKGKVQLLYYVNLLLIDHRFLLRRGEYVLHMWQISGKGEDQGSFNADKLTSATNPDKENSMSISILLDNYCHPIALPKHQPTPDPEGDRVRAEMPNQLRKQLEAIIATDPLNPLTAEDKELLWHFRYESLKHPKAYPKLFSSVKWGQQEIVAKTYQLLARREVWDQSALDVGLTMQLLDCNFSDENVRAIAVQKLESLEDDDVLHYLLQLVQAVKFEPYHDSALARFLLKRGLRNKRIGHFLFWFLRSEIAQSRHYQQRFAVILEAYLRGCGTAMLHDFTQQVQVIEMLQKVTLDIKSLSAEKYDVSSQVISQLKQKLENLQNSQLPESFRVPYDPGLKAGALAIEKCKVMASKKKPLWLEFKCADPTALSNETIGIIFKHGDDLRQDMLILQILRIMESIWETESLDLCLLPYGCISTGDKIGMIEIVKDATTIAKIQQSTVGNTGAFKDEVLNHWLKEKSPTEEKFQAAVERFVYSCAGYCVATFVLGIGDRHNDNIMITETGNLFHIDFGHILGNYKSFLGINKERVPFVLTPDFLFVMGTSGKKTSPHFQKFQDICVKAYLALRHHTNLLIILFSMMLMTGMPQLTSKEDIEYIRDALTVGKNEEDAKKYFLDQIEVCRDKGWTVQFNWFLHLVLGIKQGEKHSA
Experiment: Inhibition of PI3Kgamma (unknown origin)
readout kind: pIC50
To interpret pIC50, take it as minus log10 of a concentration measured in moles per litre.

q: Give the measured pIC50 of Nc1ncc(-c2ccnc(Nc3ccncc3)n2)c(CC2CC2)n1 .
a: 5.52

----------
Molecular target: Phosphatidylinositol 3-kinase catalytic subunit type 3 (Homo sapiens, UniProt Q8NEB9)
Sequence (Q8NEB9 whole entry): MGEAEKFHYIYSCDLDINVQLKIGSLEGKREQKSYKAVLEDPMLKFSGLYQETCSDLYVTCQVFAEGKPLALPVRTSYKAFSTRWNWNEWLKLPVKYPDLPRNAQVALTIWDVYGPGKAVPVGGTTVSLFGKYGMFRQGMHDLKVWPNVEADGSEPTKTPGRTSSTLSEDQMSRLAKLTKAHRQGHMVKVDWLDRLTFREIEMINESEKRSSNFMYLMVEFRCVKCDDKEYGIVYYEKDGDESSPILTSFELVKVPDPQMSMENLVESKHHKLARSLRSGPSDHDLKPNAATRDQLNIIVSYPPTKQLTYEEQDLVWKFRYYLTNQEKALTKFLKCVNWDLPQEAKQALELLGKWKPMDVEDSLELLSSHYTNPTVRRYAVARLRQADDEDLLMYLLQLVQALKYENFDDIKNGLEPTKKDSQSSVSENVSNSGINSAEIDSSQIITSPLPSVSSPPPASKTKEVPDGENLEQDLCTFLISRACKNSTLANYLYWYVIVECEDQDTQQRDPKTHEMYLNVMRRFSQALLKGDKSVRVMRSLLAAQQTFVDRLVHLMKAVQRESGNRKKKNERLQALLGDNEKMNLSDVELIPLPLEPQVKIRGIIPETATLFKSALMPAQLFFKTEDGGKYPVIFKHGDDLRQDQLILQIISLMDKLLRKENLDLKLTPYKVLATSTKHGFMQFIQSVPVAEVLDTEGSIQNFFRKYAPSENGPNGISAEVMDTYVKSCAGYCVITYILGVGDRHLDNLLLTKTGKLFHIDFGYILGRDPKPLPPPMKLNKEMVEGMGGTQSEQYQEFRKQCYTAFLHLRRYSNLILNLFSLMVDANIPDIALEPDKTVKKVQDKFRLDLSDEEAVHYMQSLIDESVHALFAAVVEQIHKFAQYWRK
Experiment: Inhibition of human recombinant Vps34 using substrate PI incubated for 1 hr by Adapta kinase assay
readout kind: IC50 (nM)
Report only the number, with the unit nM understood.

q: Give the measured IC50 of Cn1c(=O)n(-c2ccc(C(C)(C)C#N)cc2)c2c3cc(-c4cnc5ccccc5c4)ccc3ncc21 [DACTOLISIB] .
a: 450
